Value source: patent US4931447A

Kb values, listed per item
- System: 5HT2 Receptors (Rattus norvegicus, UniProt P14842)
- Construct: from tissue; host or cells: rat external jugular vein (isolated, male Wistar)
- Sequence (P14842 whole entry): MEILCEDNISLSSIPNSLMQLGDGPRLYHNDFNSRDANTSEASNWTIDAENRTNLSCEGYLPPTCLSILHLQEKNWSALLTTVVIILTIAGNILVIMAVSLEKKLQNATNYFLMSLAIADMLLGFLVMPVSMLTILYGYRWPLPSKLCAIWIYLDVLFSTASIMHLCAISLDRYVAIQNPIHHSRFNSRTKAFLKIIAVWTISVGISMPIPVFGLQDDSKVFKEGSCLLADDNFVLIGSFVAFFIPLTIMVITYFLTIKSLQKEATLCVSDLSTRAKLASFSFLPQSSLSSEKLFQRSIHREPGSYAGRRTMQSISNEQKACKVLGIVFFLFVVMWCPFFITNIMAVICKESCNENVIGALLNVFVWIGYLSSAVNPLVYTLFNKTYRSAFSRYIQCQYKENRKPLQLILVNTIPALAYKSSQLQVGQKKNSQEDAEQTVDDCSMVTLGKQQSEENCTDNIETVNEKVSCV
- Test method notes: Apparent antagonist dissociation constant (KB) at 5HT2 receptors, serotonin-induced contraction of isolated rat external jugular vein
- Assay type: cell-based, rat (male Wistar)
Please reply with the bare figure in nM and do not write the unit itself.

Answered examples (3):
> print(dat)
                                   molecule  value.reported
1  CC(C)n1cc2c3c(cccc31)[C@H]1C[C@@H](C(=O)NC3CCCCC3)CN(C)[C@@H]1C2 [Example 1]           0.214
2  CN1C[C@H](C(=O)NC2CCCCC2)C[C@@H]2c3cccc4c3c(cn4C)C[C@H]21 [Example 8]             0.2
3  CO[C@H]1CC[C@H](NC(=O)[C@@H]2C[C@@H]3c4cccc5c4c(cn5C(C)C)C[C@H]3N(C)C2)CC1 (relative stereo) [Example 5]           0.186

Now for another entry.
// Kb lookup, key: CC(C)n1cc2c3c(cccc31)[C@H]1C[C@@H](C(=O)NC3CCCCC3O)CN(C)[C@@H]1C2 (stereo partly shown) [Example 14]
0.0275

* * *

- System: 5HT2 Receptors (Rattus norvegicus)
- Construct: from tissue; host or cells: rat external jugular vein (isolated, male Wistar)
- Test method notes: Apparent antagonist dissociation constant (KB) at 5HT2 receptors, serotonin-induced contraction of isolated rat external jugular vein
- Type: cell-based, rat (male Wistar)
Counter-ions that a name gives are not always drawn.
Endpoint: Kb (nM)
Only the number, expressed in nM, is required.

> print(dat)
                                   molecule  unit.info  value.reported
1  CC(C)n1cc2c3c(cccc31)[C@H]1C[C@@H](C(=O)NC3CCCCCC3)CN(C)[C@@H]1C2         nM            1.05
2  CCn1cc2c3c(cccc31)[C@H]1C[C@@H](C(=O)N[C@H]3CC[C@@H](OC)CC3)CN(C)[C@@H]1C2 [Example 7, maleate]         nM           0.229
3  CCCN1C[C@H](C(=O)NC2CCCCC2)C[C@@H]2c3cccc4c3c(cn4C(C)C)C[C@H]21         nM           0.794
4  CO[C@H]1CC[C@@H](NC(=O)[C@@H]2C[C@@H]3c4cccc5c4c(cn5C)C[C@H]3N(C)C2)CC1 [Example 6, maleate]         nM           0.269
5  CCn1cc2c3c(cccc31)[C@H]1C[C@@H](C(=O)NC3CCCCC3)CN(C)[C@@H]1C2         nM           0.562
6  CC1CCC(NC(=O)[C@@H]2C[C@@H]3c4cccc5c4c(cn5C(C)C)C[C@H]3N(C)C2)CC1 (stereo partly shown)         nM            6.46

Return reported Kb; argument: `CC(C)n1cc2c3c(cccc31)[C@H]1C[C@@H](C(=O)NC3CCCC3)CN(C)[C@@H]1C2`
0.0468
